test: Hematology assays in cynomolgus monkeys (Example 45); type: in vivo; conditions: day 22
REPORTED METRIC: lymphocytes (%)
Entry rule: numbers only, all in %.

Solved cases (3 shown):
[[record]]
substance = "ISIS 416850: MOE gapmer, nucleobases 1275 to 1318 of SEQ ID NO: 1 (Table 8) (antisense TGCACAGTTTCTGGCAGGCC; MOE gapmer, wing and gap sizes not given here)"
unit_abbrev = "%"
value_measured = 39

[[record]]
substance = "ISIS 416838: MOE gapmer, nucleobases 1018 to 1042 of SEQ ID NO: 1 (Table 6) (antisense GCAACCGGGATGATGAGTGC; MOE gapmer, wing and gap sizes not given here)"
unit_abbrev = "%"
value_measured = 59

[[record]]
substance = "ISIS 416858: MOE gapmer, nucleobases 1275 to 1318 of SEQ ID NO: 1 (Table 8) (antisense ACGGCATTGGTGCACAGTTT; MOE gapmer, wing and gap sizes not given here)"
unit_abbrev = "%"
value_measured = 49


I am curious: what lymphocytes value has been reported for ISIS 416864: MOE gapmer, nucleobases 1275 to 1318 of SEQ ID NO: 1 (Table 8) (antisense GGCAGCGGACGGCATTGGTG; MOE gapmer, wing and gap sizes not given here) ? 37

Using the record for ISIS 417002: MOE gapmer, nucleobases 1275 to 1318 of SEQ ID NO: 1 (Table 8) (antisense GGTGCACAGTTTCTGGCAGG; MOE gapmer, wing and gap sizes not given here) , report its lymphocytes. 41

###

system: human Factor 11 mRNA; experiment: Antisense inhibition of human Factor 11 in HepG2 cells, lipofectin, 75 nM (Example 1); format: cell-based; details: 75 nM antisense oligonucleotide, ~24 h, relative to untreated control cells, gapmers targeted to SEQ ID NO: 1
Strand notation (5' to 3'): a small letter for the sugar, then the base; units joined by * are phosphorothioate-linked, units joined directly phosphodiester-linked; [ ] holds rarer units or linkages, { } end groups; capitals alone tell only the bases. e = 2'-O-(2-methoxyethyl) (MOE); [5mC] = 5-methylcytosine; d = 2'-deoxy (DNA)
REPORTED METRIC: % inhibition (%)
Write down the numeric answer in % and omit the unit.

Answered cases to consult:
[[record]]
substance = "413477 (antisense eA*e[5mC]*eT*eG*eA*dA*dA*d[5mC]*d[5mC]*dA*dG*dA*dA*dA*dG*eA*eG*e[5mC]*eT*eT) [compound 413477]"
value_measured = 54

[[record]]
substance = "412226 (antisense eT*eT*eG*eA*eA*dG*dA*dA*dA*dG*d[5mC]*dT*dT*dT*dA*eA*eG*eT*eA*eA) [compound 412226]"
value_measured = 17

[[record]]
substance = "413473 (antisense eA*eG*e[5mC]*e[5mC]*eA*dG*dA*dT*dT*dA*dG*dA*dA*dA*dG*eT*eG*e[5mC]*eA*e[5mC]) [compound 413473]"
value_measured = 80


Record lookup: for human Factor 11 mRNA, what % inhibition belongs to 413467 (antisense eG*eG*eT*e[5mC]*e[5mC]*dA*d[5mC]*dA*dT*dA*dA*dA*dT*dG*dT*e[5mC]*eT*eT*eT*eG) [compound 413467] ? 91

Missing value: % inhibition, human Factor 11 mRNA, entry 412242 (antisense eA*eA*e[5mC]*eA*eA*dG*dG*d[5mC]*dA*dA*dT*dA*dT*d[5mC]*dA*eT*eA*e[5mC]*e[5mC]*e[5mC]) [compound 412242] . Fill in? 49

Lab request: please report % inhibition under test system human Factor 11 mRNA for 412216 (antisense eA*eA*eA*eG*eA*dT*dT*dT*d[5mC]*dT*dT*dT*dG*dA*dG*eA*eT*eT*e[5mC]*eT) [compound 412216] 43

###

Measured AST accompanies every entry in the list below.
assay: Liver function, ALT, AST, bilirubin in cynomolgus monkeys (Example 46); type: in vivo; conditions: Day 55; plasma
Strand notation (5' to 3'): a small letter for the sugar, then the base; units joined by * are phosphorothioate-linked, units joined directly phosphodiester-linked; [ ] holds rarer units or linkages, { } end groups; capitals alone tell only the bases. e = 2'-O-(2-methoxyethyl) (MOE); [5mC] = 5-methylcytosine; d = 2'-deoxy (DNA)
The answer is to be given in IU/L; state only the numeric part.

The following substances have reported results that may help.
[[record]]
substance = "ISIS 416850: MOE gapmer, nucleobases 1275 to 1318 of SEQ ID NO: 1 (Table 8) (antisense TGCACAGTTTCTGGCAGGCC; MOE gapmer, wing and gap sizes not given here)"
unit_abbrev = "IU/L"
value_measured = 57

[[record]]
substance = "ISIS 416858: MOE gapmer, nucleobases 1275 to 1318 of SEQ ID NO: 1 (Table 8) (antisense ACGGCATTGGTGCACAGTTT; MOE gapmer, wing and gap sizes not given here)"
unit_abbrev = "IU/L"
value_measured = 69

[[record]]
substance = "ISIS 449709: 3-8-3, 4-8-4, 2-10-2, 3-10-3 or 4-10-4 MOE microwalk gapmer (Table 46) (antisense eG*e[5mC]*eA*e[5mC]*dA*dG*dT*dT*dT*d[5mC]*dT*dG*dG*d[5mC]*eA*eG*eG*e[5mC])"
unit_abbrev = "IU/L"
value_measured = 71


# context switch: different substance, same AST
Requested read-out: AST. Entry: ISIS 449707: 3-8-3, 4-8-4, 2-10-2, 3-10-3 or 4-10-4 MOE microwalk gapmer (Table 46) (antisense e[5mC]*eA*e[5mC]*eA*dG*dT*dT*dT*d[5mC]*dT*dG*dG*e[5mC]*eA*eG*eG) 52

###

Attribute: neutrophils
settings: rat, in vivo, sc, 50 mg/kg
e = 2'-O-(2-methoxyethyl) (MOE); d = 2'-deoxy (DNA)
Note: unit % is implicit; provide only the numeric part.

[[record]]
substance = "ISIS 417003: MOE gapmer, nucleobases 1275 to 1318 of SEQ ID NO: 1 (Table 8) (antisense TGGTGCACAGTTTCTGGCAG; MOE gapmer, wing and gap sizes not given here)"
value_measured = 17

[[record]]
substance = "ISIS 416892: 3-14-3 MOE gapmer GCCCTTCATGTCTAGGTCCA (sugars from the 5' end e3 d14 e3, backbone and methylation of C not given here)"
value_measured = 92

[[record]]
substance = "ISIS 416925: MOE gapmer, nucleobases 1275 to 1318 of SEQ ID NO: 1 (Table 8) (antisense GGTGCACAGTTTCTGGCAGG; MOE gapmer, wing and gap sizes not given here)"
value_measured = 20

[[record]]
substance = "ISIS 416826: 5-10-5 MOE gapmer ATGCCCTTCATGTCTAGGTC (sugars from the 5' end e5 d10 e5, backbone and methylation of C not given here)"
value_measured = 30

[[record]]
substance = "ISIS 416999: MOE gapmer, nucleobases 1275 to 1318 of SEQ ID NO: 1 (Table 8) (antisense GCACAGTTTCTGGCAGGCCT; MOE gapmer, wing and gap sizes not given here)"
value_measured = 23


Entry ISIS 416825: 5-10-5 MOE gapmer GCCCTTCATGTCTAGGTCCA (sugars from the 5' end e5 d10 e5, backbone and methylation of C not given here) has what neutrophils? 25

###

test: Hematology assays in cynomolgus monkeys (Example 45); assay type: in vivo; settings: day 15; escalating dose regimen
A collection of substances and their measured MCHC
The answer should read as a number with its unit following.

# count of solved cases: 3
[[record]]
substance = "ISIS 416858: MOE gapmer, nucleobases 1275 to 1318 of SEQ ID NO: 1 (Table 8) (antisense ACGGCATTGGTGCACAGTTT; MOE gapmer, wing and gap sizes not given here)"
value_measured = "31 g/dL"

[[record]]
substance = "ISIS 417002: MOE gapmer, nucleobases 1275 to 1318 of SEQ ID NO: 1 (Table 8) (antisense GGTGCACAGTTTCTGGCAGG; MOE gapmer, wing and gap sizes not given here)"
value_measured = "31 g/dL"

[[record]]
substance = "ISIS 416850: MOE gapmer, nucleobases 1275 to 1318 of SEQ ID NO: 1 (Table 8) (antisense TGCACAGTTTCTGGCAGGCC; MOE gapmer, wing and gap sizes not given here)"
value_measured = "30 g/dL"


Need MCHC of ISIS 416838: MOE gapmer, nucleobases 1018 to 1042 of SEQ ID NO: 1 (Table 6) (antisense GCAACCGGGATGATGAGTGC; MOE gapmer, wing and gap sizes not given here) , thanks. 31 g/dL

// MCHC lookup, key: ISIS 416864: MOE gapmer, nucleobases 1275 to 1318 of SEQ ID NO: 1 (Table 8) (antisense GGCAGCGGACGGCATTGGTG; MOE gapmer, wing and gap sizes not given here) 30 g/dL

###

Assay: Hematology assays in cynomolgus monkeys (Example 46)
Type: in vivo
Conditions: Day 45
Protocol: Groups, each consisting of two male and two female monkeys, were injected subcutaneously with 25 mg/kg of ISIS 416850, ISIS 449709, ISIS 445522, ISIS 449710, ISIS 449707, ISIS 449711, ISIS 449708, 416858, and ISIS 445531. […] Body weights were taken 14 days and 7 days before the start of treatment and were then measured weekly throughout the treatment period. […]
Strand notation (5' to 3'): a small letter for the sugar, then the base; units joined by * are phosphorothioate-linked, units joined directly phosphodiester-linked; [ ] holds rarer units or linkages, { } end groups; capitals alone tell only the bases. e = 2'-O-(2-methoxyethyl) (MOE); [5mC] = 5-methylcytosine; d = 2'-deoxy (DNA)
REPORTED METRIC: platelet count

# annotated cases, reported platelet count shown
[[record]]
substance = "ISIS 449711: 3-8-3, 4-8-4, 2-10-2, 3-10-3 or 4-10-4 MOE microwalk gapmer (Table 46) (antisense eA*e[5mC]*dA*dG*dT*dT*dT*d[5mC]*dT*dG*dG*d[5mC]*eA*eG)"
value_measured = "257 ×100/μL"

[[record]]
substance = "ISIS 449708: 3-8-3, 4-8-4, 2-10-2, 3-10-3 or 4-10-4 MOE microwalk gapmer (Table 46) (antisense eA*e[5mC]*eA*dG*dT*dT*dT*d[5mC]*dT*dG*dG*e[5mC]*eA*eG)"
value_measured = "381 ×100/μL"

[[record]]
substance = "ISIS 416850: MOE gapmer, nucleobases 1275 to 1318 of SEQ ID NO: 1 (Table 8) (antisense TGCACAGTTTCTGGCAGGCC; MOE gapmer, wing and gap sizes not given here)"
value_measured = "453 ×100/μL"


API: the following record is the query input.
What platelet count value was documented for this substance, ISIS 416858: MOE gapmer, nucleobases 1275 to 1318 of SEQ ID NO: 1 (Table 8) (antisense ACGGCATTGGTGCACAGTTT; MOE gapmer, wing and gap sizes not given here) ? 287 ×100/μL
